- Tested on: Bacteroides dorei
- Run Description: growth AUC relative to DMSO control (median of replicates) (fraction); higher = more growth (less inhibition), active = hit call of the paper
- Condition Label: 20 µM; 24 h
Use 1 as the dividing line for growth AUC, with the line itself on the yes (1) side and lower values as no (0).

Hello, I need to know if `CC(C)c1cccc2c(=O)c3ccccc3sc12` has measured growth AUC not below 1. Thanks!
no (0)

Same for `CN(C)C(=O)c1cccnc1S(N)(=O)=O`
yes (1)

Same for `CC(C)N(C(=O)CS(=O)(=O)[O-])c1ccccc1.[Na+]`
yes (1)

Same for `CCOC(=O)Cn1c(=O)sc2cccc(Cl)c21`
no (0)

Continuing:
Hello, I need to know if `O.O=C(Nc1ccc([N+](=O)[O-])cc1Cl)c1cc(Cl)ccc1O` has measured growth AUC not below 1. Thanks!
no (0)

* * *

- System: Parabacteroides merdae
- Run Description: growth AUC relative to DMSO control (median of replicates) (fraction); higher = more growth (less inhibition), active = hit call of the paper
- Condition Label: 20 µM; 24 h
Use 1 as the dividing line for growth AUC, with the line itself on the 1.0 side and lower values as 0.0.

Hello, I need to know if `CCCCOCN(C(=O)CS(=O)(=O)[O-])c1c(CC)cccc1CC.[Na+]` has measured growth AUC not below 1. Thanks!
0.0

Same for `Nc1nc2ccccc2[nH]1`
0.0

Continuing:
Hello, I need to know if CC(C)(NC(=O)C(Br)C(C)(C)C)c1ccccc1 (stereo not drawn) has measured growth AUC not below 1. Thanks!
0.0

Same for `COC(=O)Nc1ccc(Cl)c(Cl)c1`
0.0

Same for `CC[N+](CC)(CC(=O)Nc1c(C)cccc1C)Cc1ccccc1.O=C([O-])c1ccccc1`
1.0

* * *

# reported growth AUC; entries follow
- Tested on: Bacteroides uniformis
- Run Description: growth AUC relative to DMSO control (median of replicates) (fraction); higher = more growth (less inhibition), active = hit call of the paper
- Condition Label: 20 µM; 24 h
// no unit string in output, number only

Reference set, count: 5
Fill in the recorded growth AUC for this molecule, with Bacteroides uniformis as test system: CC(C)(C)C(=O)C(Oc1ccc(Cl)cc1)n1ccnc1 (stereo not drawn)
0.984

Same for `CCCCOC(=O)[C@@H](C)Oc1ccc(Oc2ccc(C(F)(F)F)cn2)cc1`
0.918

Same for `CO/N=C(/C(=O)O)c1ccccc1CO/N=C(\C)c1cccc(C(F)(F)F)c1`
0.889

Same for `CC(C)N(C(=O)CS(=O)(=O)[O-])c1ccc(F)cc1.[Na+]`
1.04

Same for COCC(=O)N(c1c(C)cccc1C)C(C)C(=O)O (stereo not drawn)
0.997

Continuing:
Fill in the recorded growth AUC for this molecule, with Bacteroides uniformis as test system: `CCCNCCOc1c(Cl)cc(Cl)cc1Cl`
1

Same for `CCc1cccc(C)c1NC(=O)C(=O)O`
1

Same for `O=C(O)COc1ccc(Cl)cc1CO`
0.98

* * *

- Test system: Bacteroides caccae
- Run Description: growth AUC relative to DMSO control (median of replicates) (fraction); higher = more growth (less inhibition), active = hit call of the paper
- Condition Label: 20 µM; 24 h
# reported growth AUC; entries follow
// no unit string in output, number only

Reference set, count: 2
# get_value(readout='growth AUC', item= `CCOCCc1ccc(OCCNc2ncnc(CC)c2Cl)c(C)c1C` )
0.929

Same for `CNC(=O)/C(=N/OC)c1ccccc1CO/N=C(C)/C(=N/OC)C(/C)=N/OC`
0.983

We now examine a further compound.
# get_value(readout='growth AUC', item= `CCOC(=O)[C@@H](C)Oc1ccc(Oc2nc3ccc(Cl)cc3o2)cc1` )
0.971

* * *

- Tested on: Parabacteroides distasonis
- Run Description: growth AUC relative to DMSO control (median of replicates) (fraction); higher = more growth (less inhibition), active = hit call of the paper
- Condition Label: 20 µM; 24 h
# reported growth AUC; entries follow
// no unit string in output, number only

Fill in the recorded growth AUC for this molecule, with Parabacteroides distasonis as test system: `COc1nc(OC)nc(C(=O)c2cccc(F)c2N(C)S(=O)(=O)C(F)F)n1`
1.03

Same for `CCc1cccc(C)c1N(C(=O)C(=O)O)[C@@H](C)C(=O)O`
0.809

Same for COC(=O)C(C)Oc1ccc(Oc2ncc(C(F)(F)F)cc2Cl)cc1 (centres undefined)
0.834

Continuing:
Fill in the recorded growth AUC for this molecule, with Parabacteroides distasonis as test system: `COC(=O)Nc1ccc(Cl)c(Cl)c1`
0.986

Same for `COC(=O)c1c(Cl)ccc(Cl)c1OC`
1.05

* * *

- System: Bacteroides stercoris
- Run Description: growth AUC relative to DMSO control (median of replicates) (fraction); higher = more growth (less inhibition), active = hit call of the paper
- Condition Label: 20 µM; 24 h
Use 1 as the dividing line for growth AUC, with the line itself on the t side and lower values as f.

Solved entries (count: 5):
Hello, I need to know if `C[C@@]1(c2ccccc2)NC(=O)N(Nc2ccccc2)C1=O` has measured growth AUC not below 1. Thanks!
f

Same for `CN(C)C=O`
t

Same for `COCCOc1ccccc1S(=O)(=O)NC(=O)Nc1nc(OC)nc(OC)n1`
f

Same for CCOC(=O)C1=NN(c2ccc(Cl)cc2Cl)C(C)(C(=O)OCC)C1 (stereo not drawn)
f

Same for `Cc1cc(C2CC2)nc(Nc2ccc(O)cc2)n1`
f

# ---- query compound ----
Hello, I need to know if `O=C(O)c1cccc2nnsc12` has measured growth AUC not below 1. Thanks!
f

* * *

- System: Odoribacter splanchnicus
- Run Description: growth AUC relative to DMSO control (median of replicates) (fraction); higher = more growth (less inhibition), active = hit call of the paper
- Condition Label: 20 µM; 24 h
Property: growth AUC
// no unit string in output, number only

Fill in the recorded growth AUC for this molecule, with Odoribacter splanchnicus as test system: CCC/C(=N\OCC(C)Oc1ccc(Cl)cc1)C1=C(O)CC(C2CCCSC2)CC1=O (centres undefined)
1.07

Same for CCC/C(=N\OCC)C1=C(O)CC(C2CCCSC2)CC1=O (centres undefined)
1.01

Continuing:
Fill in the recorded growth AUC for this molecule, with Odoribacter splanchnicus as test system: `O=[N+](Nc1ccccc1)c1ccccc1`
0.973

Same for `NC(=O)Cc1cccc2ccccc12`
0.992

Same for CCc1cccc(C)c1N(C(=O)C(=O)O)C(C)COC (centres undefined)
1.04

Same for `CCN(Cc1c(F)cccc1Cl)c1c([N+](=O)[O-])cc(C(F)(F)F)cc1[N+](=O)[O-]`
1.03

Same for `CC(C)([CH2][Sn]([CH2]C(C)(C)c1ccccc1)([CH2]C(C)(C)c1ccccc1)[O][Sn]([CH2]C(C)(C)c1ccccc1)([CH2]C(C)(C)c1ccccc1)[CH2]C(C)(C)c1ccccc1)c1ccccc1`
1.06

Same for `COc1cc(OC)nc(NC(=O)NS(=O)(=O)c2c(-c3nnn(C)n3)cnn2C)n1`
1.03

Same for `CCCCOCCOC(=O)COc1nc(Cl)c(Cl)cc1Cl`
1.09

Same for `CCNc1nc(NC(C)(C)C)[nH]c(=O)n1`
0.948

Same for `O=c1oc(-c2ccccc2)nc2ccccc12`
0.893

Same for NC(=O)C1CO1 (centres undefined)
0.949

Same for `CCc1cccc(C)c1NC(=O)CS(=O)(=O)[O-].[Na+]`
1.01

Same for `COc1nc(OC)nc(C(=O)c2cccc(F)c2N(C)S(=O)(=O)C(F)F)n1`
0.892

Same for `N#Cc1cc(Cl)c(O)c(Cl)c1`
0.998

Same for COC(=O)C(C)Oc1ccc(Cl)cc1Cl (centres undefined)
1.11

Same for CCCCCCC(C)OC(=O)C(C)Oc1ccc(Cl)cc1C (centres undefined)
1.03

Same for `CC(=O)Oc1c(Cl)c(Cl)c(Cl)c(Cl)c1Cl`
0.548

Same for `COC(=O)CCCOc1ccc(Cl)cc1Cl`
0.925

Same for NC(Cn1cncn1)C(=O)O (centres undefined)
0.967

Same for CCCCC(CC)COC(=O)COc1cc(Cl)c(Cl)cc1Cl (centres undefined)
0.998

Same for `Oc1ccc2nc(-c3cscn3)[nH]c2c1`
1.01

Same for `[S]`
1.03

Same for `COC(=O)c1c(Cl)c(Cl)c(C(=O)OC)c(Cl)c1Cl`
1.1

Same for `O=C(Nc1ccc(O)cc1-c1ccc(Cl)cc1)c1cccnc1Cl`
0.872

Same for `CC1(C)C(=O)Oc2ccc(OS(C)(=O)=O)cc21`
0.993

Same for `COC(=O)c1ccc(C(=O)OC)cc1`
0.989

Same for `Cc1cc(C)cc(O)c1`
0.988

Same for `CNC(=O)Nc1nc2ccccc2s1`
1.05

Same for `Cc1c(Br)c2ccc(F)cc2n1S(=O)(=O)c1ncn(S(=O)(=O)N(C)C)n1`
0.957

Same for ClC(COCC(Cl)C(Cl)(Cl)Cl)C(Cl)(Cl)Cl (centres undefined)
0.971
